System: UniProt:P78356 | Read-out: IC50

CN(C)C(=O)c1ccc(-c2ccc(Nc3cncc(NC(=O)CCc4ccccc4)c3)nc2)cc1    10 to 100 nM
CN(C)C(=O)c1ccc(-c2ccc(Nc3cncc(NC(=O)c4ccc5ncoc5c4)c3)nc2)cc1    10 to 100 nM
CN(C)C(=O)c1ccc(-c2ccc(Nc3cncc(NC(=O)c4cccc(N)c4)c3)nc2)cc1    10 to 100 nM
Cc1cc(Nc2cnc3c(c2)N2C(=O)CC[C@H]2CO3)ncc1-c1ccc(N2CCCC2=O)cc1    10 to 100 nM
O=C1CCCN1c1ccc(-c2ccc(Nc3cnc4c(c3)N3C(=O)C5(CC5)C[C@H]3CO4)nc2)cc1    1 to 10 nM

Input line: // fetch UniProt:P78356 IC50 for `CN(C)C/C=C/C(=O)NCC(=O)Nc1cccc(CCC(=O)Nc2cncc(Nc3ccc(-c4ccc(C(=O)N(C)C)cc4)cn3)c2)c1`
Output line: > 1000 nM

Input line: // fetch UniProt:P78356 IC50 for `COc1cccc(C(=O)Nc2cncc(Nc3ccc(-c4ccc(C(=O)N(C)C)cc4)cn3)c2)c1`
Output line: 10 to 100 nM

* * *

- measurement.target: PIP4K2A (Homo sapiens)
- protocol.notes: ADP-glo kinase assay PIP4K 2A (Table 3)
- Assay type: biochemical
- Design: made in house; host or cells: E. coli
- experimental.context: compounds listed under IC50 bins
- Sequence (P48426 whole entry, species assumed): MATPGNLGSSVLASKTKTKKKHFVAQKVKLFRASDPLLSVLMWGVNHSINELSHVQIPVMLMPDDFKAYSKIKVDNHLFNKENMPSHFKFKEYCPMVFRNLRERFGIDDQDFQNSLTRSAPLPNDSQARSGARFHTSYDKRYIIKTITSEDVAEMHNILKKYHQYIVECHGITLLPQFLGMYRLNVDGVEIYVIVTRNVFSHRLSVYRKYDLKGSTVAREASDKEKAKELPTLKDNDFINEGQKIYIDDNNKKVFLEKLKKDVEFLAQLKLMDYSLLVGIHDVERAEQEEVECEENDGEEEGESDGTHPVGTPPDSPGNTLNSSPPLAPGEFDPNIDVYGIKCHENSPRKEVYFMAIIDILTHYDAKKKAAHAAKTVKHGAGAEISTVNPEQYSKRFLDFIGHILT
Reported IC50 values for a set of compounds

O=C(Nc1cncc(Nc2ccc(-c3ccc(N4CCCC4=O)cc3)cn2)c1)c1ccc(=O)[nH]c1 [Example 240]    100 to 1000 nM

Input line: What value of IC50 has been recorded for this entry: CC(C)c1nc(Nc2cnc3c(c2)N2C(=O)C4(CC4)C[C@H]2CO3)ncc1-c1ccc(N2CCCC2=O)cc1 [Example 216]
Output line: ≤ 1 nM

Input line: What value of IC50 has been recorded for this entry: CN(C)C(=O)c1cnc(-c2ccc(Nc3cccnc3)nc2)nc1 [Example 29]
Output line: > 1000 nM

Input line: What value of IC50 has been recorded for this entry: CN(C)C/C=C/C(=O)Nc1ccc(C(=O)Nc2cncc(Nc3ccc(-c4ccc(C(=O)N(C)C)cc4)cn3)c2)cc1 [Example 117]
Output line: 10 to 100 nM

Input line: What value of IC50 has been recorded for this entry: CN(C)C(=O)c1ccc(-c2ccc(Nc3cncc(NC(=O)c4cccc5[nH]ccc45)c3)nc2)cc1 [Example 143]
Output line: 10 to 100 nM

Input line: What value of IC50 has been recorded for this entry: COC(=O)Nc1cncc(Nc2ccc(-c3ccc(C(=O)N(C)C)cc3)cn2)c1 [Example 120]
Output line: 100 to 1000 nM

Input line: What value of IC50 has been recorded for this entry: O=C(Nc1cncc(Nc2ccc(-c3ccc(N4CCCC4=O)cc3)cn2)c1)N1CCOCC1 [Example 251]
Output line: 100 to 1000 nM

Input line: What value of IC50 has been recorded for this entry: CC1CN(C(=O)Nc2cncc(Nc3ccc(-c4ccc(N5CCCC5=O)cc4)cn3)c2)CCN1 (stereo not drawn) [Example 256]
Output line: 10 to 100 nM

Input line: What value of IC50 has been recorded for this entry: COc1cncc(C(=O)Nc2cncc(Nc3ccc(-c4ccc(N5CCCC5=O)cc4)cn3)c2)c1 [Example 239]
Output line: 10 to 100 nM

* * *

Reported pIC50 values for a set of molecules
- measurement.target: PIP4K2A (Homo sapiens)
- protocol.notes: Kinase Assay PIP4K2 A (Table 2)
- Assay type: biochemical
- Parameters: 4 nM PIP4K2A (full length protein, SignalChem); purchased SignalChem
- experimental.context: compounds listed under IC50 bins
- Sequence (P48426 whole entry): as the sequence (P48426 whole entry, species assumed) above
pIC50: −log10 of the molar value.

Use the examples below as a reference point.
CNC(=O)c1ccc(-c2ccc(Nc3cncc(N4CCCC4=O)c3)nc2)cc1    < 6.00
CN(C)C(=O)c1cccc2ncc(Nc3ccc(-c4ccc(N5CCCC5=O)cc4)cn3)cc12    6.00 to 7.00

Input line: What value of pIC50 has been recorded for this entry: CN(C)C(=O)c1ccc(-c2ccc(Nc3cncc(NC(=O)C4CC4c4ccccc4)c3)nc2)cc1 (centres unmarked)
Output line: 8.00 to 9.00

Input line: What value of pIC50 has been recorded for this entry: `CN(Cc1cncs1)C(=O)c1ccc(-c2ccc(Nc3cccnc3)nc2)cc1`
Output line: < 6.00

Input line: What value of pIC50 has been recorded for this entry: `CN(C)C(=O)c1ccc(-c2ccc(Nc3cnc4c(c3)N(C(=O)OC(C)(C)C)CCO4)nc2)cc1`
Output line: 7.00 to 8.00

Input line: What value of pIC50 has been recorded for this entry: `CN(C)C(=O)c1ccc(-c2ccc(Nc3cnc4c(c3)N(C(=O)c3ccccn3)CCO4)nc2)cc1`
Output line: 7.00 to 8.00

Input line: What value of pIC50 has been recorded for this entry: `COc1cccc(C(=O)Nc2cncc(Nc3ccc(-c4ccc(C(=O)N(C)C)cc4)cn3)c2)c1`
Output line: 8.00 to 9.00

Input line: What value of pIC50 has been recorded for this entry: `CN(C)C(=O)c1ccc(-c2ccc(Nc3cncc(NC(=O)c4ccc5cc[nH]c5c4)c3)nc2)cc1`
Output line: 7.00 to 8.00

* * *

Reported IC50 values for a set of molecules
- measurement.target: PIP4K2A (Homo sapiens, UniProt P48426)
- protocol.notes: Kinase Assay PIP4K2 A (Table 2)
- Type: biochemical
- Set-up: 4 nM PIP4K2A (full length protein, SignalChem); purchased SignalChem
- experimental.context: compounds listed under IC50 bins

COCCC(=O)N1CCN(c2cncc(Nc3ccc(-c4ccc(N5CCCC5=O)cc4)cn3)c2)CC1    10 to 100 nM
CC(C)c1nc(Nc2cnc3c(c2)N2C(=O)CC[C@H]2CO3)ncc1-c1ccc(N2CCCC2=O)cc1    ≤ 1 nM
CN(C)C(=O)c1ccc(-c2ccc(Nc3cnc4c(c3)NC(=O)CO4)nc2)cc1    100 to 1000 nM

Input line: What value of IC50 has been recorded for this entry: `CN(Cc1cccnc1)C(=O)c1ccc(-c2ccc(Nc3cccnc3)nc2)cc1`
Output line: > 1000 nM

* * *

Target chain: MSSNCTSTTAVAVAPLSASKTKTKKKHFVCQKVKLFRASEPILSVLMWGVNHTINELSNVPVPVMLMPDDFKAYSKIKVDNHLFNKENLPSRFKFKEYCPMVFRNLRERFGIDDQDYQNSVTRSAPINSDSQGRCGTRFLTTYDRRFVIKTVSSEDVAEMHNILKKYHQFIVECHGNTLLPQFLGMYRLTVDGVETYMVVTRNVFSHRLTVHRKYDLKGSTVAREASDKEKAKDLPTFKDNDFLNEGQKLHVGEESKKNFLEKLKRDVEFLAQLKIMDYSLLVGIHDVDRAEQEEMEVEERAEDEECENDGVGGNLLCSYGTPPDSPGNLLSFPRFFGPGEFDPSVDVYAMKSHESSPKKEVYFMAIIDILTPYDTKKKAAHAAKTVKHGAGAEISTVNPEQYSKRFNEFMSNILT
pIC50: −log10 of the molar value.
recorded.endpoint: pIC50

Use the examples below as a reference point.
CN(C)C(=O)c1ccc(-c2ccc(Nc3cncc(NC(=O)c4cccnc4)c3)nc2)cc1    7.00 to 8.00
CC1(C)C[C@H]2COc3ncc(Nc4ccc(-c5ccc(N6CCCC6=O)c(F)c5)cn4)cc3N2C1=O    7.00 to 8.00
C[C@@]1(O)C[C@H]2COc3ncc(Nc4ccc(-c5ccc(N6CCCC6=O)cc5)cn4)cc3N2C1=O    7.00 to 8.00
CN(C)C(=O)c1ccc(-c2ccc(Nc3cncc(N4CCC(Cc5cccc(N)c5)C4=O)c3)nc2)cc1 (stereo not shown)    7.00 to 8.00
O=C(c1cccc2ncc(Nc3ccc(-c4ccc(N5CCCC5=O)cc4)cn3)cc12)N1CCC(O)C1 (stereo not shown)    < 6.00
CN(C)C(=O)c1ccc(-c2ccc(Nc3cncc(NC(=O)CCc4cccc(N)c4)c3)nc2)cc1    7.00 to 8.00

Could you now look at the following compound, please?
Input line: What value of pIC50 has been recorded for this entry: `CN(C)C(=O)c1ccc(-c2ccc(Nc3cncc(NC(=O)c4ccccc4)c3)nc2)cc1`
Output line: 7.00 to 8.00

* * *

- measurement.target: PIP4K2A (Homo sapiens, UniProt P48426)
- protocol.notes: Kinase Assay PIP4K2 A (Table 2)
- Type: biochemical
- Set-up: 4 nM PIP4K2A (full length protein, SignalChem); purchased SignalChem
- experimental.context: compounds listed under IC50 bins
Reported IC50 values for a set of compounds

Input line: What value of IC50 has been recorded for this entry: `COc1ncc(Nc2ccc(-c3ccc(N4CCCC4=O)cc3)cn2)cc1N(C)C(C)=O`
Output line: > 1000 nM

Input line: What value of IC50 has been recorded for this entry: `O=C1CCCN1c1ccc(-c2ccc(Nc3cnc4c(c3)N(C(=O)C3CC3)CCO4)nc2)cc1`
Output line: 1 to 10 nM

Input line: What value of IC50 has been recorded for this entry: `COC1CN(c2nc(Nc3cnc4c(c3)N3C(=O)CC[C@H]3CO4)ncc2-c2ccc(N3CCCC3=O)cc2)C1`
Output line: 1 to 10 nM

Input line: What value of IC50 has been recorded for this entry: `O=C1C[C@@H](O)CN1c1ccc(-c2ccc(Nc3cnc4c(c3)N3C(=O)CC[C@H]3CO4)nc2)cc1`
Output line: 100 to 1000 nM

Input line: What value of IC50 has been recorded for this entry: O=C(COc1cccc2c1C(=O)N(C1CCC(=O)NC1=O)C2=O)NCCCC(=O)Nc1ccc(C(=O)Nc2cncc(Nc3ccc(-c4ccc(N5CCCC5=O)cc4)cn3)c2)cc1 (stereo not shown)
Output line: 100 to 1000 nM

Input line: What value of IC50 has been recorded for this entry: `CN1CCN(c2nc(Nc3cnc4c(c3)N3C(=O)CC[C@H]3CO4)ncc2-c2ccc(N3CCCC3=O)cc2)CC1`
Output line: 1 to 10 nM

Input line: What value of IC50 has been recorded for this entry: `COCc1nc(Nc2cnc3c(c2)N2C(=O)CC[C@H]2CO3)ncc1-c1ccc(C(=O)N(C)C)cc1`
Output line: 10 to 100 nM
